B1: KLHL12 (parent)
chain: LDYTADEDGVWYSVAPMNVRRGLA

Variants of: B1
Assay: protein stability index of a GFP-peptide fusion (GPS, HEK-293T) (PSI 1-6); higher = more stable;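 note: lentivirally expressed fusions sorted by FACS into six bins by GFP to DsRed ratio, PSI derived from sequencing read proportions per bin multiplied by bin number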
Details: c terminus: a fixed tail appended
observation_type: protein stability index

A5N	2.19
V10I	1.84
D8I	1.96
V14N	2.83
M17R	3.34
M17Y	1.86

**Query** Can you look up the measured protein stability index of `D8Q` for me?
**Result** 2.49

**Query** // protein stability index lookup, key: `Y3L`
**Result** 2.22

**Query** Give its protein stability index value. Item: `V14H`
**Result** 3.39

**Query** Tell me the measured protein stability index of `V10M` , please.
**Result** 2.32

**Query** Fill in: protein stability index of `D8H` is ___
**Result** 1.82

**Query** // lookup protein stability index for `V10D`
**Result** 3.36

**Query** Please report the recorded protein stability index for `V10R` .
**Result** 2.7

**Query** I am curious: what protein stability index value has been reported for `W11S` ?
**Result** 3.62

**Query** Could you tell me which protein stability index is on file for `R20W` ?
**Result** 2.05
